Provide the reported inhibition at 10 µM of each item.
- target: recombinant mTOR (Homo sapiens (Human))
- method-notes: mTOR kinase assay (33P incorporation into 4EBP1)
- Assay type: biochemical
- condition-summary: compound at 10 μM, 10 μM ATP
# do not omit the unit; it follows the number

# map each compound to its inhibition at 10 µM
1. CCOC(=O)c1nc(-c2ccc(NC(=O)Nc3ccc(N4CCOCC4)nc3)cc2)nc(N2CCOCC2)c1OCC [MTR-0276]
2. COc1cnc(-c2ccc(NC(=O)Nc3cccc(F)c3)cc2)nc1N1CCOCC1 [MTR-0164]
3. COc1cnc(-c2ccc(NC(=O)Nc3ccc(N4CCOCC4=O)cc3)cc2)nc1-c1ccncc1 [MTR-0474]
4. CCOc1cnc(-c2ccc(NC(=O)Nc3ccc(C(N)=O)cc3)cc2)nc1-c1ccncc1 [MTR-0400]
5. CCOC(=O)c1nc(-c2ccc(NC(=O)Nc3ccc(C(N)=O)cc3)cc2F)nc(N2CCOCC2)c1OCC [MTR-0345]

1. 82%
2. 91%
3. 88%
4. 85%
5. 95%

Please state, for each entry, its recorded inhibition at 10 µM.
1. CSc1cnc(-c2ccc(NC(=O)Nc3ccc(N4CCN(C)CC4)cn3)cc2)nc1N1CCOCC1 [MTR-0318]
2. CSc1c(Cl)nc(-c2ccc(NC(=S)Nc3ccc(C(=O)O)cc3)cc2)nc1N1CCOCC1 [MTR-0293]
3. CSc1c(Cl)nc(-c2ccc(NC(=S)Nc3ccc(N4CCOCC4=O)cc3)cc2)nc1N1CCOCC1 [MTR-0304]

91%
83%
90%

====

- target: recombinant mTOR (Homo sapiens (Human), UniProt P42345)
- Sequence (P42345 1360-2549): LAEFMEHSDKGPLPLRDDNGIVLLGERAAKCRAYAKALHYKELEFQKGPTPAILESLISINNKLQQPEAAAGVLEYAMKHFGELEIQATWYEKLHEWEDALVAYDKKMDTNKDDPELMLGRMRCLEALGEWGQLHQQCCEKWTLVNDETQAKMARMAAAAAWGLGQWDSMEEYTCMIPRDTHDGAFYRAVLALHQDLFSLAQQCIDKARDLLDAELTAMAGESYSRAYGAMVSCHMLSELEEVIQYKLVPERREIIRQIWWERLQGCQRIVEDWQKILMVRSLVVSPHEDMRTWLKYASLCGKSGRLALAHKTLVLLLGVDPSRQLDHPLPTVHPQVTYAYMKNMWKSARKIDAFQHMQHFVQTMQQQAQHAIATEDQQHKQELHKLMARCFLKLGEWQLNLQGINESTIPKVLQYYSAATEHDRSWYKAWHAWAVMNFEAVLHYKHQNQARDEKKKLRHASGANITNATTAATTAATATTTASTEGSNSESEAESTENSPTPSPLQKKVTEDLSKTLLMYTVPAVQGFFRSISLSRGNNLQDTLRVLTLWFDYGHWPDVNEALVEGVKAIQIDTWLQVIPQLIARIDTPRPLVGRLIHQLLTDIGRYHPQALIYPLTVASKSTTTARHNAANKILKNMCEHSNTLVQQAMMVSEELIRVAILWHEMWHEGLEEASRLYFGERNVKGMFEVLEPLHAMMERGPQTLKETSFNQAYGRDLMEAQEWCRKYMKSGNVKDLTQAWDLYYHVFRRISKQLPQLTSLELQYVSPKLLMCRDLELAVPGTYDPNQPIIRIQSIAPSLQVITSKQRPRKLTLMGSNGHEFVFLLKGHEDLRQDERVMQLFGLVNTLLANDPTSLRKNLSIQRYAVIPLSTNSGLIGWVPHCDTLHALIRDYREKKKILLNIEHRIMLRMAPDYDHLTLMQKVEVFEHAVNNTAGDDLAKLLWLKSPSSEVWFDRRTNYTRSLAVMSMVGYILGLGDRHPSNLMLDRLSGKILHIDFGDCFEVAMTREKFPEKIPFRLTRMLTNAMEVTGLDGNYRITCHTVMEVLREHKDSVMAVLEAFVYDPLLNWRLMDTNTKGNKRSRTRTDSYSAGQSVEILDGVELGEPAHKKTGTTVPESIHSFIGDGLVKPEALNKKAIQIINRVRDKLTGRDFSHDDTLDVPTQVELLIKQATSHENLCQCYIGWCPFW
- method-notes: mTOR kinase assay (33P incorporation into 4EBP1)
- Format: biochemical
- condition-summary: compound at 10 μM, 10 μM ATP
I'd be grateful if you could share measured inhibition at 10 µM for these entries.
Numbers only, in %.

CCOc1c(-c2cccnc2)nc(-c2ccc(NC(=O)Nc3ccncc3)cc2)nc1N1CCOCC1 [MTR-0490]
102
CCNC(=O)Nc1ccc(-c2ncc(OC)c(N3CCOCC3)n2)cc1 [MTR-0129]
96
COc1cnc(-c2ccc(NC(=O)Nc3ccc(S(C)(=O)=O)cc3)cc2)nc1N1CCOCC1 [MTR-0470]
88

# per-item lookup of inhibition at 10 µM; items listed below
1. CCOc1c(-c2ccncc2)nc(-c2ccc(NC(=O)Nc3cccnc3)cc2)nc1N1CCOCC1 [MTR-0493]
2. CCOc1cnc(-c2ccc(NC(=O)Nc3ccc(N4CCOCC4=O)cc3)cc2)nc1-c1ccncc1 [MTR-0398]
3. CCOC(=O)c1nc(-c2ccc(NC(=O)Nc3cccc(NC(=O)C(F)(F)F)c3)cc2)nc(N2CCOCC2)c1OCC [MTR-0252]
4. COc1cnc(-c2ccc(NC(=O)Nc3ccncc3)cc2)nc1-c1ccncc1 [MTR-0480]
5. CSc1c(Cl)nc(-c2ccc(NC(=O)Nc3cccc(NC(C)=O)c3)cc2)nc1N1CCOCC1 [MTR-0270]
6. COc1cnc(-c2ccc(NC(=S)Nc3cccc(F)c3)cc2)nc1N1CCOCC1 [MTR-0168]

[99, 89, 82, 90, 96, 91]

Give inhibition at 10 µM for all molecules that follow.
1. CCOC(=O)c1nc(-c2ccc(NC(N)=O)cc2)nc(N2CCOCC2)c1OCC [MTR-0121]
2. CSc1c(Cl)nc(-c2ccc(NC(=O)O)cc2)nc1N1CCOCC1 [MTR-0307]

[94, 82]
